Test system: EPHB1 kinase domain
Assay: pTyr-Var library bacterial peptide display kinase screen (enrichment scores)
Format: biochemical, human
Settings: sheet "EPHB1"; variant seq vs reference seq; bacterial peptide display enrichment
measurement type: Screen (variant relative to reference peptide, measured in the pTyr-Var library screen)

The following sequences have reported results that may help.
biopolymer sequence | reported
SQINLYQDVML [ZNF806_Y33_A28S] | -0.1927
PANMVYSTVEI [SLAMF7_Y304_T302M] | 0.5023

Switching to the query record.
Any idea what Screen (variant relative to reference peptide, measured in the pTyr-Var library screen) came out for NREGVYTVSAP [TGFBI_Y537_F540S] on EPHB1 kinase domain?
-2.126

This collection of values is drawn from paper PMC10065799.
